Hello, the source for this data is the supplement of paper PMC9663587, in case you need it.

Kindly state area over the GR curve for each of the entries shown.
Tested on: PDX1328
procedure_text: area over the GR curve, 72 h; higher = more effect
Quick note: unit goes after the number.

Looking up O=C(CCCCCCC(=O)Nc1ccccc1)NO [Vorinostat] (max 10 µM) , I see its area over the GR curve listed as 0.36 GR

Looking up CN1CC[C@H](c2c(O)cc(O)c3c(=O)cc(-c4ccccc4Cl)oc23)[C@H](O)C1 [Flavopiridol] (max 1 µM) , I see its area over the GR curve listed as 0.216 GR

Looking up CN1CCN(C(=O)c2ccc3cc(CCNc4ncnc5ccc(C#N)cc45)ccc3c2)CC1 [senexin b] (max 10 µM) , I see its area over the GR curve listed as 0.0976 GR

Looking up CCc1cncnc1N1CCN(Cc2nc3ccc(C(F)(F)F)cc3[nH]2)CC1 (max 10 µM) , I see its area over the GR curve listed as 0.0319 GR

* * *

System: SUM44PE
procedure_text: area over the GR curve, 72 h; higher = more effect;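 note: Dye Drop or Deep Dye Drop imaging of viable cells in 384-well plates (Hoechst nuclei, LIVE/DEAD dye), nine half-log doses, GR normalized to DMSO controls and time-zero plates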
Kind request: treat 0.4 GR as inclusive, so area over the GR curve at 0.4 GR or higher is Condition met, anything lower is Condition not met.

area over the GR curve >= 0.4 GR for CN1CCN(C(=O)c2ccc3cc(CCNc4ncnc5ccc(C#N)cc45)ccc3c2)CC1 [senexin b] (max 10 µM) ?
Condition not met

area over the GR curve >= 0.4 GR for O=C(c1cc(Cc2n[nH]c(=O)c3ccccc23)ccc1F)N1CCN(C(=O)C2CC2)CC1 [Olaparib/AZD2281] (max 10 µM) ?
Condition not met

area over the GR curve >= 0.4 GR for Cc1nc(-c2cn3c(n2)-c2ccc(-c4cnn(C(C)(C)C(N)=O)c4)cc2OCC3)n(C(C)C)n1 [Taselisib/GDC0032] (max 10 µM) ?
Condition met

area over the GR curve >= 0.4 GR for CN(C)C(=O)c1cc2cnc(Nc3ccc(N4CCNCC4)cn3)nc2n1C1CCCC1 [LEE011/Ribociclib] (max 10 µM) ?
Condition not met

area over the GR curve >= 0.4 GR for CC(=O)O[C@H]1C(=O)[C@@]2(C)[C@H]([C@H](OC(=O)c3ccccc3)[C@]3(O)C[C@H](OC(=O)[C@H](O)[C@@H](NC(=O)c4ccccc4)c4ccccc4)C(C)=C1C3(C)C)[C@]1(OC(C)=O)CO[C@@H]1C[C@@H]2O [Paclitaxel] (max 1 µM) ?
Condition met

area over the GR curve >= 0.4 GR for C=CCn1c(=O)c2cnc(Nc3ccc(N4CCN(C)CC4)cc3)nc2n1-c1cccc(C(C)(C)O)n1 [AZD1775] (max 10 µM) ?
Condition met

area over the GR curve >= 0.4 GR for CC(C)n1nc(-c2ccc3oc(N)nc3c2)c2c(N)ncnc21 [INK128/MLN0128] (max 3.162 µM) ?
Condition met

area over the GR curve >= 0.4 GR for CNCc1ccc(-c2[nH]c3cc(F)cc4c3c2CCNC4=O)cc1 [Rucaparib] (max 10 µM) ?
Condition not met

area over the GR curve >= 0.4 GR for O=C1NC(=NCc2cccs2)SC1=Cc1ccc2ncccc2c1 [R0-3306] (max 10 µM) ?
Condition not met

area over the GR curve >= 0.4 GR for CCC(=O)Nc1ccc(C(=O)Nc2ccc(Nc3ncc4c(n3)N(C)c3ccc(C)cc3C(=O)N4C)cc2)cc1 [FMF-03-145-1] ?
Condition met

area over the GR curve >= 0.4 GR for C=CC(=O)Nc1ccc(C(=O)Nc2[nH]nc3c2CN(C(=O)N[C@H](CN(C)C)c2ccccc2)C3(C)C)cc1 [YKL-5-124] (max 10 µM) ?
Condition met

area over the GR curve >= 0.4 GR for CN(C)C/C=C/C(=O)Nc1ccc(C(=O)N2CCC[C@@H](Nc3ncc(Cl)c(-c4c[nH]c5ccccc45)n3)C2)cc1 [THZ531] (max 1 µM) ?
Condition not met
